Assay: MTT cytotoxicity assay
Format: cell-based
Settings: human, MCF-7 breast adenocarcinoma cells; read-out: Cytotoxic activity (IC50)

compound	IC50
COC1=C(C(=O)[C@@]2(C)[C@@H](C)C=C[C@H]3C[C@@H](C)CC[C@@H]32)C(=O)[C@H]([C@@H](C)O)N1C	1800 nM
CCCCCCC(C)/C=C/C=C/C=C/C(=O)N[C@H](C(=O)O)[C@H](O)c1ccccc1O (relative stereo)	11000 nM
CC=C(Cl)C1=CC(=O)C23CC2C(C)(C)OC3(O)C1=O (stereo not drawn)	640 nM

* * *

Assay: MTT cytotoxicity assay
Assay type: cell-based
Settings: mouse; L929; n.c.: no cytotoxicity; read-out: Cytotoxic activity (IC50)
pIC50: −log10 of the molar value.
valueKind: pIC50

compound	observedValue
C[C@H]1CC[C@H]2[C@@H](C=C[C@H](C)[C@]2(C)C(=O)C2=C(O)[C@H]([C@@H](C)O)N(C)C2=O)C1	5.30
COC1=C(C(=O)[C@@]2(C)[C@@H](C)C=C[C@H]3C[C@@H](C)CC[C@@H]32)C(=O)N(C)[C@H]1[C@@H](C)O	4.49
C/C(=C\c1csc(C)n1)[C@@H]1C[C@@H]2O[C@]2(C)CCC[C@H](C)[C@H](O)[C@@H](C)C(=O)C(C)(C)[C@@H](O)CC(=O)O1 [epothilone B, reference compound]	9.37

* * *

// values below are reported IC50
Assay: MTT cytotoxicity assay
Format: cell-based
Conditions: human; SKOV-3; read-out: Cytotoxic activity (IC50)
valueKind: IC50

compound	observedValue
COC1=C(C(=O)[C@@]2(C)[C@@H](C)C=C[C@H]3C[C@@H](C)CC[C@@H]32)C(=O)N(C)[C@H]1[C@@H](C)O [Compound 7, 4′-methyl-CJ-17,572]	14 µM
C[C@H]1CC[C@H]2[C@@H](C=C[C@H](C)[C@]2(C)C(=O)C2=C(O)[C@H]([C@@H](C)O)N(C)C2=O)C1 [Compound 1, CJ-17,572]	3.3 µM
C/C(=C\c1csc(C)n1)[C@@H]1C[C@@H]2O[C@]2(C)CCC[C@H](C)[C@H](O)[C@@H](C)C(=O)C(C)(C)[C@@H](O)CC(=O)O1 [epothilone B, reference compound]	0.00018 µM

* * *

Reported IC50 is given for each of the following compounds.
Assay: MTT cytotoxicity assay
Type: cell-based
Details: human, A431 squamous cell carcinoma cells; read-out: Cytotoxic activity (IC50)
Protocol: The in vitro cytotoxicity assay was performed using the MTT (3-(4,5-dimethylthiayol-2-yl)-2,5-diphenyltetrazolium bromide) test in 96-well microtiter plates as previously described.
valueKind: IC50 (µM)

compound	unitSymbol	observedValue
CCCCCCC(C)/C=C/C=C/C=C/C(=O)N[C@H](C(=O)O)[C@H](O)c1ccccc1O (relative stereo) [Compound 2, peziculastatin]	µM	53
CC=C(Cl)C1=CC(=O)C23CC2C(C)(C)OC3(O)C1=O (stereo not drawn) [Compound 3, Mycorrhizin A]	µM	1
COC1=C(C(=O)[C@@]2(C)[C@@H](C)C=C[C@H]3C[C@@H](C)CC[C@@H]32)C(=O)[C@H]([C@@H](C)O)N1C [Compound 8, 2′-methyl-CJ-17,572]	µM	20

* * *

System: Pseudomonas aeruginosa PA14
Test: Antimicrobial serial dilution assay (MIC)
Assay type: cell-based
Conditions: n.i.: no inhibition
Text: […]

molecule	measurementTarget	Minimum inhibitory concentration (MIC)
CC=C(Cl)C1=CC(=O)C23CC2C(C)(C)OC3(O)C1=O (stereo not drawn)	Pseudomonas aeruginosa PA14	n.i.
C[C@H]1CC[C@H]2[C@@H](C=C[C@H](C)[C@]2(C)C(=O)C2=C(O)[C@H]([C@@H](C)O)N(C)C2=O)C1	Pseudomonas aeruginosa PA14	n.i.
CCC(C(=O)O)C(=O)OC1C2(C)Oc3ccc(-c4ccc5c(c4O)C(=O)C4=C(O)C6OC6(C)C(OC(=O)CC(=O)O)C4(C)O5)c(O)c3C(=O)C2=C(O)C2OC21C (stereo not drawn) [Compound 5, Cryptosporioptide B]	Pseudomonas aeruginosa PA14	n.i.

* * *

Each entry below carries its reported IC50.
Experiment: MTT cytotoxicity assay
Type: cell-based
Conditions: human, SKOV-3 ovarian carcinoma cells; read-out: Cytotoxic activity (IC50)

compound	IC50 / µM
CC=C(Cl)C1=CC(=O)C23CC2C(C)(C)OC3(O)C1=O (centres unmarked)	2.4
COC1=C(C(=O)[C@@]2(C)[C@@H](C)C=C[C@H]3C[C@@H](C)CC[C@@H]32)C(=O)[C@H]([C@@H](C)O)N1C	21

* * *

Assay: MTT cytotoxicity assay
Format: cell-based
Conditions: human; PC-3; read-out: Cytotoxic activity (IC50)

molecule	unitSymbol	IC50
C[C@H]1CC[C@H]2[C@@H](C=C[C@H](C)[C@]2(C)C(=O)C2=C(O)[C@H]([C@@H](C)O)N(C)C2=O)C1 [Compound 1, CJ-17,572]	µM	3.3
COC1=C(C(=O)[C@@]2(C)[C@@H](C)C=C[C@H]3C[C@@H](C)CC[C@@H]32)C(=O)N(C)[C@H]1[C@@H](C)O [Compound 7, 4′-methyl-CJ-17,572]	µM	9.1
C/C(=C\c1csc(C)n1)[C@@H]1C[C@@H]2O[C@]2(C)CCC[C@H](C)[C@H](O)[C@@H](C)C(=O)C(C)(C)[C@@H](O)CC(=O)O1 [epothilone B, reference compound]	µM	0.00028

* * *

Experiment: MTT cytotoxicity assay
Format: cell-based
Details: human, A549 lung carcinoma cells; read-out: Cytotoxic activity (IC50)
As shown below, each of these compounds has a reported IC50 value.
valueKind: IC50 (µM)

compound	unitSymbol	observedValue
CC=C(Cl)C1=CC(=O)C23CC2C(C)(C)OC3(O)C1=O (stereo not drawn)	µM	22
CCCCCCC(C)/C=C/C=C/C=C/C(=O)N[C@H](C(=O)O)[C@H](O)c1ccccc1O (relative stereo)	µM	41
COC1=C(C(=O)[C@@]2(C)[C@@H](C)C=C[C@H]3C[C@@H](C)CC[C@@H]32)C(=O)[C@H]([C@@H](C)O)N1C	µM	35

* * *

Let's look at some compounds and their measured IC50.
Assay: MTT cytotoxicity assay
Assay type: cell-based
Settings: human; A431; read-out: Cytotoxic activity (IC50)

compound	IC50 [µM]
C[C@H]1CC[C@H]2[C@@H](C=C[C@H](C)[C@]2(C)C(=O)C2=C(O)[C@H]([C@@H](C)O)N(C)C2=O)C1	23
COC1=C(C(=O)[C@@]2(C)[C@@H](C)C=C[C@H]3C[C@@H](C)CC[C@@H]32)C(=O)N(C)[C@H]1[C@@H](C)O	24
C/C(=C\c1csc(C)n1)[C@@H]1C[C@@H]2O[C@]2(C)CCC[C@H](C)[C@H](O)[C@@H](C)C(=O)C(C)(C)[C@@H](O)CC(=O)O1 [epothilone B, reference compound]	6.5e-05

* * *

Assay: MTT cytotoxicity assay
Format: cell-based
Details: human; MCF-7; read-out: Cytotoxic activity (IC50)
Each record here notes measured IC50.
valueKind: IC50

compound	valueKind	observedValue
COC1=C(C(=O)[C@@]2(C)[C@@H](C)C=C[C@H]3C[C@@H](C)CC[C@@H]32)C(=O)N(C)[C@H]1[C@@H](C)O	IC50	9600 nM
C[C@H]1CC[C@H]2[C@@H](C=C[C@H](C)[C@]2(C)C(=O)C2=C(O)[C@H]([C@@H](C)O)N(C)C2=O)C1	IC50	2700 nM
C/C(=C\c1csc(C)n1)[C@@H]1C[C@@H]2O[C@]2(C)CCC[C@H](C)[C@H](O)[C@@H](C)C(=O)C(C)(C)[C@@H](O)CC(=O)O1 [epothilone B, reference compound]	IC50	0.083 nM

* * *

Overview of recorded IC50 for various compounds
Assay: MTT cytotoxicity assay
Type: cell-based
Settings: human; KB3.1; n.c.: no cytotoxicity; read-out: Cytotoxic activity (IC50)
valueKind: IC50 (nM)

compound	valueKind	unitSymbol	observedValue
C[C@H]1CC[C@H]2[C@@H](C=C[C@H](C)[C@]2(C)C(=O)C2=C(O)[C@H]([C@@H](C)O)N(C)C2=O)C1 [Compound 1, CJ-17,572]	IC50	nM	2500
C/C(=C\c1csc(C)n1)[C@@H]1C[C@@H]2O[C@]2(C)CCC[C@H](C)[C@H](O)[C@@H](C)C(=O)C(C)(C)[C@@H](O)CC(=O)O1 [epothilone B, reference compound]	IC50	nM	0.045
COC1=C(C(=O)[C@@]2(C)[C@@H](C)C=C[C@H]3C[C@@H](C)CC[C@@H]32)C(=O)N(C)[C@H]1[C@@H](C)O [Compound 7, 4′-methyl-CJ-17,572]	IC50	nM	6400
